Biological target: Cannabinoid receptor 2 (Homo sapiens, UniProt P34972)
Sequence (P34972 whole entry): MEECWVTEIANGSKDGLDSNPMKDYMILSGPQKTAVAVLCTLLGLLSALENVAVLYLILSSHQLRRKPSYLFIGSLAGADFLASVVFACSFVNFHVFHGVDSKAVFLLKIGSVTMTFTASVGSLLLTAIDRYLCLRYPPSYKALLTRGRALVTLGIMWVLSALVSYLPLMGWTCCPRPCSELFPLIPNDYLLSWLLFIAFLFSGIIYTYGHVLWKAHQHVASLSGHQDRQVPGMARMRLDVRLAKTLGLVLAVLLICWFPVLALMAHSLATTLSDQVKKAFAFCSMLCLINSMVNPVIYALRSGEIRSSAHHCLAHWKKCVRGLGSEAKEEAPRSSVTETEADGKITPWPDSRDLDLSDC
Assay: Displacement of [3H]CP-55940 from human recombinant CB2 receptor expressed in HEK cells
pKi: −log10 of the molar value.
Binary call on pKi: MET from 8 upward, NOT MET beneath that.

• CCCCCn1cc(C(=O)NC23CC4CC(CC(C4)C2)C3)c(=O)c2cccc([N+](=O)[O-])c21 = MET
• CCCCc1[nH]c2ccc(Br)cc2c(=O)c1C(=O)NC12CC3CC(CC(C3)C1)C2 = NOT MET
• COc1cccc2c(O)c(C(=O)NC34CC5CC(CC(C5)C3)C4)cnc12 = NOT MET
• CCCCCn1c(=O)c(C(=O)NC23CC4CC(CC(C4)C2)C3)cc2ccccc21 = MET
• CCCCCn1c(=O)c(C(=O)NC23CC4CC(CC(C4)C2)C3)c(O)c2cc(Br)ccc21 = NOT MET
• CCCCCn1cc(C(=O)NC23CC4CC(CC(C4)C2)C3)c(=O)c2cc(-c3ccccc3)cc(OC)c21 = NOT MET
• CCCCCOc1cccc2c(O)c(C(=O)NC34CC5CC(CC(C5)C3)C4)cnc12 = NOT MET

Next item in the queue.
Item CCCCCn1cc(C(=O)NC23CC4CC(CC(C4)C2)C3)c(=O)c2cc(Br)cc(OC)c21 with pKi of 8 or above? NOT MET

Origin of the recorded values: ChEMBL document CHEMBL1811785
